study_system: Human COX-2 (Homo sapiens)
Construct: endogenous in cells
Sequence (P35354 18-604): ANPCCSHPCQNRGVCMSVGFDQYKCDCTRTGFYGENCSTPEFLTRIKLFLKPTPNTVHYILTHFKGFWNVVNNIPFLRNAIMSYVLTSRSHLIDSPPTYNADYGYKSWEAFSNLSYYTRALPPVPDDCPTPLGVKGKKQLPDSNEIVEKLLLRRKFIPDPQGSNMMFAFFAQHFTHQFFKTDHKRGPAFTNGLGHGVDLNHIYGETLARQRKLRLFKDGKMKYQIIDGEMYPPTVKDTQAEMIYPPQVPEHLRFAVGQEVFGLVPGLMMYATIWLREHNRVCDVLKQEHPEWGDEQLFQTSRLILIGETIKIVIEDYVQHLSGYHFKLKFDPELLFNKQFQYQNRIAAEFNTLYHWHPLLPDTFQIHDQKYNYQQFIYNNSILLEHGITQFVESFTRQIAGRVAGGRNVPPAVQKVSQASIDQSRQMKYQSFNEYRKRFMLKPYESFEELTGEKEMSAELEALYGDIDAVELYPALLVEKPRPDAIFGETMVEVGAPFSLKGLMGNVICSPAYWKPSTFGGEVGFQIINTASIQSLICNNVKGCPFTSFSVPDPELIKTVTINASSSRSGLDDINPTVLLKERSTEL
method: Human COX-2 Inhibitory Activity Test (LPS-induced PGE2 in blood)
applied_conditions: human blood, LPS, PGE2; IC50 from Hill Plot
pIC50: −log10 of the molar value.
experimental_endpoint: pIC50

# annotated cases, reported pIC50 shown
compound | pIC50
Cc1cccc(-c2cc(C)[nH]c2-c2ccc(S(C)(=O)=O)cc2)c1 [Preparation Example 21] | 6.89
COc1ccc(-c2cc(C)[nH]c2-c2ccc(S(C)(=O)=O)cc2)cc1Cl [Preparation Example 28] | 6.51
Cc1cc(-c2ccc(N(C)C)c(C)c2)c(-c2ccc(S(C)(=O)=O)cc2)[nH]1 [Preparation Example 32] | 6.35
COc1ccc(-c2cc(C)[nH]c2-c2ccc(OC)cc2)cc1 [Control compound (a), reference compound] | 5.32

I: Cc1cc(-c2ccc(F)c(Cl)c2)c(-c2ccc(S(C)(=O)=O)cc2)[nH]1 [Preparation Example 10]
II: Cc1cc(-c2ccc(N(C)C)cc2)c(-c2ccc(S(C)(=O)=O)cc2)[nH]1 [Preparation Example 19]
III: Cc1cc(-c2ccc3c(ccn3C)c2)c(-c2ccc(S(C)(=O)=O)cc2)[nH]1 [Preparation Example 37]
-- ask Put the items in order so that reported pIC50 rises from first to last. Form field (ranking): labels in requested order.
-- reply II, I, III

###

study_system: Human COX-2 (Homo sapiens, UniProt P35354)
Construct: endogenous in cells; host or cells: heparinised whole blood of a healthy human donor pretreated with aspirin, stimulated with LPS (own knowledge: COX-2 is induced in monocytes)
method: Human COX-2 Inhibitory Activity Test (LPS-induced PGE2 in blood)
Type: cell-based
applied_conditions: ratio of IC50 COX-1 to COX-2
experimental_endpoint: COX-1/COX-2

# annotated cases, reported COX-1/COX-2 shown
cpd_smiles | study_system | COX-1/COX-2
CCc1cc(-c2ccc(F)cc2)c(-c2ccc(S(C)(=O)=O)cc2)[nH]1 | Human COX-2 (Homo sapiens, UniProt P35354) | 118
Cc1cc(-c2ccc(F)c(Cl)c2)c(-c2ccc(S(C)(=O)=O)cc2)[nH]1 | Human COX-2 (Homo sapiens, UniProt P35354) | 307
Cc1cc(F)cc(-c2cc(C)[nH]c2-c2ccc(S(C)(=O)=O)cc2)c1 | Human COX-2 (Homo sapiens, UniProt P35354) | 617
Cc1cc(-c2ccc(F)c(F)c2F)c(-c2ccc(S(C)(=O)=O)cc2)[nH]1 | Human COX-2 (Homo sapiens, UniProt P35354) | 458
Cc1cc(-c2ccc(F)cc2)c(-c2ccc(S(C)(=O)=O)cc2)[nH]1 | Human COX-2 (Homo sapiens, UniProt P35354) | 683

P: Cc1cccc(-c2cc(C)[nH]c2-c2ccc(S(C)(=O)=O)cc2)c1
Q: CSc1ccc(-c2cc(C)[nH]c2-c2ccc(S(C)(=O)=O)cc2)cc1
-- ask Parameter metric = COX-1/COX-2. Return the lower-valued option from P and Q . Refer to your chosen entry by its label in the reply.
-- reply Q
(Q: 102, P: 304)

###

study_system: Human COX-1 (Homo sapiens, UniProt P23219)
Construct: endogenous in cells
Sequence (P23219 24-599): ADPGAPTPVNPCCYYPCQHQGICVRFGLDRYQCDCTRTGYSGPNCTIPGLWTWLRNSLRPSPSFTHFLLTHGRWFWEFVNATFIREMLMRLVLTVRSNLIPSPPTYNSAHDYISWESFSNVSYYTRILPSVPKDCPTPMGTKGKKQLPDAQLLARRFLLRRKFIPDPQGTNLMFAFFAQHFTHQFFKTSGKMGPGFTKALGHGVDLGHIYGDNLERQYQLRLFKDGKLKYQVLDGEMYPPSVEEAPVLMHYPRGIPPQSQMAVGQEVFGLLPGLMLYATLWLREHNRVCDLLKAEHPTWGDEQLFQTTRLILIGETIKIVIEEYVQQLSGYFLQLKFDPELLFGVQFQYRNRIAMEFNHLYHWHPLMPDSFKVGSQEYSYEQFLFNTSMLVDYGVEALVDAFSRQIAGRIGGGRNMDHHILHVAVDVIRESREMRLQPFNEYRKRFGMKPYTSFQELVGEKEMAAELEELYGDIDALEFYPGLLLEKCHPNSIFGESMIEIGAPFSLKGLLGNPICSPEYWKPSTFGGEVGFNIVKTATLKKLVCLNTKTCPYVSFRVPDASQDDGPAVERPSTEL
method: Human COX-1 Inhibitory Activity Test (TXB2 in blood)
applied_conditions: IC50 from Hill Plot
experimental_endpoint: IC50 (µM)

compound | IC50, µM
Cc1cc(-c2ccc(F)cc2)c(-c2ccc(S(C)(=O)=O)cc2)[nH]1 | 649

I: CS(=O)(=O)c1ccc(-c2[nH]ccc2-c2ccc(F)cc2)cc1 [Control compound (b), reference compound]
II: COc1ccc(-c2cc(C)[nH]c2-c2ccc(OC)cc2)cc1 [Control compound (a), reference compound]
-- ask Which one would you say has the larger IC50 value: I , or II ? Refer to your chosen entry by its label in the reply.
-- reply I

###

study_system: Human COX-1 (Homo sapiens, UniProt P23219)
Construct: endogenous in cells
method: Human COX-1 Inhibitory Activity Test (TXB2 in blood)
applied_conditions: IC50 from Hill Plot
experimental_endpoint: IC50 (µM)

# annotated cases, reported IC50 shown
molecule | study_system | IC50 [µM]
Cc1cc(-c2ccc(F)cc2F)c(-c2ccc(S(C)(=O)=O)cc2)[nH]1 [Preparation Example 7] | Human COX-1 (Homo sapiens, UniProt P23219) | 30.6
Cc1cc(-c2ccc(F)c(Cl)c2)c(-c2ccc(S(C)(=O)=O)cc2)[nH]1 [Preparation Example 10] | Human COX-1 (Homo sapiens, UniProt P23219) | 84
Cc1cc(-c2ccc(F)c(F)c2)c(-c2ccc(S(C)(=O)=O)cc2)[nH]1 [Preparation Example 8] | Human COX-1 (Homo sapiens, UniProt P23219) | 26.7
CCc1cc(-c2ccc(F)cc2)c(-c2ccc(S(C)(=O)=O)cc2)[nH]1 [Preparation Example 11] | Human COX-1 (Homo sapiens, UniProt P23219) | 9.9
Cc1cccc(-c2cc(C)[nH]c2-c2ccc(S(C)(=O)=O)cc2)c1 [Preparation Example 21] | Human COX-1 (Homo sapiens, UniProt P23219) | 39.2

1: Cc1cc(-c2ccc(F)c(F)c2F)c(-c2ccc(S(C)(=O)=O)cc2)[nH]1 [Preparation Example 52]
2: CSc1ccc(-c2cc(C)[nH]c2-c2ccc(S(C)(=O)=O)cc2)cc1 [Preparation Example 18]
-- ask Which one would you say has the larger IC50 value: 1 , or 2 ? Refer to your chosen entry by its label in the reply.
-- reply 1

###

study_system: Human COX-2 (Homo sapiens)
Construct: endogenous in cells
method: Human COX-2 Inhibitory Activity Test (LPS-induced PGE2 in blood)
applied_conditions: human blood, LPS, PGE2; IC50 from Hill Plot
Protocol: COX-1 and COX-2 activities were measured according to the method of Patrignani et al. (J. Pharm. Exp. Ther. Vol. 271, 1705 (1994)). (2) COX-2 activity was measured in the following procedure. […] (4) The measurement for the PGE2 content was conducted in the following procedure. […] The absorbance at 405 nm was measured by an Immuno Reader (NJ-2000, manufactured by Nippon Intermed Co., Ltd.). […]
pIC50: −log10 of the molar value.
experimental_endpoint: pIC50

I: Cc1cc(-c2ccc(F)c(F)c2)c(-c2ccc(S(C)(=O)=O)cc2)[nH]1
II: Cc1cc(-c2ccc(F)c(F)c2F)c(-c2ccc(S(C)(=O)=O)cc2)[nH]1
-- ask Parameter metric = pIC50. Return the lower-valued option from I and II . Refer to your chosen entry by its label in the reply.
-- reply I

###

study_system: Human COX-2 (Homo sapiens, UniProt P35354)
Construct: endogenous in cells; host or cells: heparinised whole blood of a healthy human donor pretreated with aspirin, stimulated with LPS (own knowledge: COX-2 is induced in monocytes)
method: Human COX-2 Inhibitory Activity Test (LPS-induced PGE2 in blood)
Type: cell-based
applied_conditions: ratio of IC50 COX-1 to COX-2
// values below are reported COX-1/COX-2

# annotated cases, reported COX-1/COX-2 shown
compound | measured
Cc1cc(-c2ccc(F)c(F)c2)c(-c2ccc(S(C)(=O)=O)cc2)[nH]1 [Preparation Example 8] | > 457
Cc1cc(-c2ccc(N(C)C)c(C)c2)c(-c2ccc(S(C)(=O)=O)cc2)[nH]1 [Preparation Example 32] | > 226
CS(=O)(=O)c1ccc(-c2[nH]c(CCC(=O)O)cc2-c2ccc(F)cc2)cc1 [Preparation Example 50] | > 220

-- ask Would you kindly share the measured COX-1/COX-2 for Cc1cc(-c2ccc(N(C)C)cc2)c(-c2ccc(S(C)(=O)=O)cc2)[nH]1 [Preparation Example 19] ?
-- reply > 134

-- ask Would you kindly share the measured COX-1/COX-2 for COc1ccc(-c2cc(C)[nH]c2-c2ccc(OC)cc2)cc1 [Control compound (a), reference compound] ?
-- reply < 0.1

-- ask Would you kindly share the measured COX-1/COX-2 for Cc1cc(-c2cccc(N(C)C)c2)c(-c2ccc(S(C)(=O)=O)cc2)[nH]1 [Preparation Example 23] ?
-- reply > 289

-- ask Would you kindly share the measured COX-1/COX-2 for Cc1cc(-c2cccc(Cl)c2)c(-c2ccc(S(C)(=O)=O)cc2)[nH]1 [Preparation Example 4] ?
-- reply > 610

-- ask Would you kindly share the measured COX-1/COX-2 for Cc1cc(-c2ccc3c(ccn3C)c2)c(-c2ccc(S(C)(=O)=O)cc2)[nH]1 [Preparation Example 37] ?
-- reply > 714
